Molecular target: N-type calcium channel (α1B (Cav2.2), β3 and α2δ subunits) (Homo sapiens)
Sequence (Q00975 whole entry): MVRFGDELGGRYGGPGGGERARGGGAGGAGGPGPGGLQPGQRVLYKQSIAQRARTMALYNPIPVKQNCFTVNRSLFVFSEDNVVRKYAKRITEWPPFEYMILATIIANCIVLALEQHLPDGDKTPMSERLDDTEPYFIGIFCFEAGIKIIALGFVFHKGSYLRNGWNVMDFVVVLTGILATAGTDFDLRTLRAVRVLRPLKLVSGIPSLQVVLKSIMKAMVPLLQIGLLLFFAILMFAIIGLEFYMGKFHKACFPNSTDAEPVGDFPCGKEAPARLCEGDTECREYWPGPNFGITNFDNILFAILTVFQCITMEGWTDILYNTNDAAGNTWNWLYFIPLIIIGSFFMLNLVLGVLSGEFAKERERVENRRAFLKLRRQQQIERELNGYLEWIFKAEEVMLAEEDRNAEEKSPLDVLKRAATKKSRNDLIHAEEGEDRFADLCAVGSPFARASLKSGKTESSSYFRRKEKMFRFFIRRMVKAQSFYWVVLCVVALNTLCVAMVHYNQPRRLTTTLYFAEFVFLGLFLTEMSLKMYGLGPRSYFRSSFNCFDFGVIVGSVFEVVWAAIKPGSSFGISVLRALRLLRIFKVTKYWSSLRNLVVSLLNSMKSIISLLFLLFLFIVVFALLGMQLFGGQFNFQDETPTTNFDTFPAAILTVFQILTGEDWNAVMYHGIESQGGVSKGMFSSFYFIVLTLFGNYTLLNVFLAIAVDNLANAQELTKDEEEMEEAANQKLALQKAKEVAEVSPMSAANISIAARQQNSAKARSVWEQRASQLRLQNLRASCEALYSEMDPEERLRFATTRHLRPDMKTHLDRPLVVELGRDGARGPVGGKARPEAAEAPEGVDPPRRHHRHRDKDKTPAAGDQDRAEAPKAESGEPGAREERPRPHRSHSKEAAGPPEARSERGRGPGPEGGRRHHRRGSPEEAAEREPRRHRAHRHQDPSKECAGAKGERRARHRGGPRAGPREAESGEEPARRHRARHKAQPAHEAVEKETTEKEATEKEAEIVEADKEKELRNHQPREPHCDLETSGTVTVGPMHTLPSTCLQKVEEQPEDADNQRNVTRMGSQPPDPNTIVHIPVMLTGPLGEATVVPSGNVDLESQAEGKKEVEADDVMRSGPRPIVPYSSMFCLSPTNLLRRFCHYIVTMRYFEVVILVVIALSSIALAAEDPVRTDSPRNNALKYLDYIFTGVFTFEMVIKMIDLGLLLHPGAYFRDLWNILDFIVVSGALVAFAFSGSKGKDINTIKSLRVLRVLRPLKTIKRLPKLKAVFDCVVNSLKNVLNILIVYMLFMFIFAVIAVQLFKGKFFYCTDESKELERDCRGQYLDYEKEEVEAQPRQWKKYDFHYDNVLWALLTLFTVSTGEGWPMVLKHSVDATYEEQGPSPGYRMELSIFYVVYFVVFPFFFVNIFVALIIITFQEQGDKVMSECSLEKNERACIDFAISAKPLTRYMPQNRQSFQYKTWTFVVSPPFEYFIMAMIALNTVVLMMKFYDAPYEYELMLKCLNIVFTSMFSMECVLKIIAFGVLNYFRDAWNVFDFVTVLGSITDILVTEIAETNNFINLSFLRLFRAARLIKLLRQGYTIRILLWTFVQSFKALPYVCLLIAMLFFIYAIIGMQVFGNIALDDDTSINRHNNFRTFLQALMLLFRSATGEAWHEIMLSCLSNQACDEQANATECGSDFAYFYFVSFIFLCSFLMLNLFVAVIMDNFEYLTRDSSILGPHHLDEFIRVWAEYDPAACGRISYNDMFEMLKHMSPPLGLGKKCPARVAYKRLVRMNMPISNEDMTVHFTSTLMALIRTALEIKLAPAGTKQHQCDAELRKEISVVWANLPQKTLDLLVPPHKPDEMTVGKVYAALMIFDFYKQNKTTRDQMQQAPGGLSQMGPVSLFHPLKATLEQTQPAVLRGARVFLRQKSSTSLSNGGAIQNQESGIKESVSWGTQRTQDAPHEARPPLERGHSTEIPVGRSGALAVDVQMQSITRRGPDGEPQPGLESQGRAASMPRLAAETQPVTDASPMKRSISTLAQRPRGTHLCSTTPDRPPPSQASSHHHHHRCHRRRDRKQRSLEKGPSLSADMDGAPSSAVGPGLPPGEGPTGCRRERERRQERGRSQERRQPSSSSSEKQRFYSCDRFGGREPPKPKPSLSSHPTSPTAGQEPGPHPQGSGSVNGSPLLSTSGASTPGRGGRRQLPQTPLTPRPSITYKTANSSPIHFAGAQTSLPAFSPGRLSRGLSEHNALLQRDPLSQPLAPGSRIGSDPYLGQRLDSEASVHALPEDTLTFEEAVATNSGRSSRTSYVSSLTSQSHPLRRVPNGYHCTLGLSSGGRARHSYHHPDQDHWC
Sequence (P54284 whole entry partner): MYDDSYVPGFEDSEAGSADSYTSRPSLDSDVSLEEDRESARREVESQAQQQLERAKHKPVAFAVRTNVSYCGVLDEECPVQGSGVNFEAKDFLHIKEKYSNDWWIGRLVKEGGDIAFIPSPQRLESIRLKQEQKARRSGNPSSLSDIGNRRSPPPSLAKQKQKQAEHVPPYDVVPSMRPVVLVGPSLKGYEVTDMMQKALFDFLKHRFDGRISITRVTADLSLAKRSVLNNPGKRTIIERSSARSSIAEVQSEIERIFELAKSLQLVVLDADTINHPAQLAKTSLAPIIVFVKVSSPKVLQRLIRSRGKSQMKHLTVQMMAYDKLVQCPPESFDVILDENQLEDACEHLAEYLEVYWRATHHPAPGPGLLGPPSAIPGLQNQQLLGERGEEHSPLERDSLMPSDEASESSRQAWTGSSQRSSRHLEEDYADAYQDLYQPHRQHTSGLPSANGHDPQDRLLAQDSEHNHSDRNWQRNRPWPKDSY
Sequence (P54289 25-946 partner limits assumed): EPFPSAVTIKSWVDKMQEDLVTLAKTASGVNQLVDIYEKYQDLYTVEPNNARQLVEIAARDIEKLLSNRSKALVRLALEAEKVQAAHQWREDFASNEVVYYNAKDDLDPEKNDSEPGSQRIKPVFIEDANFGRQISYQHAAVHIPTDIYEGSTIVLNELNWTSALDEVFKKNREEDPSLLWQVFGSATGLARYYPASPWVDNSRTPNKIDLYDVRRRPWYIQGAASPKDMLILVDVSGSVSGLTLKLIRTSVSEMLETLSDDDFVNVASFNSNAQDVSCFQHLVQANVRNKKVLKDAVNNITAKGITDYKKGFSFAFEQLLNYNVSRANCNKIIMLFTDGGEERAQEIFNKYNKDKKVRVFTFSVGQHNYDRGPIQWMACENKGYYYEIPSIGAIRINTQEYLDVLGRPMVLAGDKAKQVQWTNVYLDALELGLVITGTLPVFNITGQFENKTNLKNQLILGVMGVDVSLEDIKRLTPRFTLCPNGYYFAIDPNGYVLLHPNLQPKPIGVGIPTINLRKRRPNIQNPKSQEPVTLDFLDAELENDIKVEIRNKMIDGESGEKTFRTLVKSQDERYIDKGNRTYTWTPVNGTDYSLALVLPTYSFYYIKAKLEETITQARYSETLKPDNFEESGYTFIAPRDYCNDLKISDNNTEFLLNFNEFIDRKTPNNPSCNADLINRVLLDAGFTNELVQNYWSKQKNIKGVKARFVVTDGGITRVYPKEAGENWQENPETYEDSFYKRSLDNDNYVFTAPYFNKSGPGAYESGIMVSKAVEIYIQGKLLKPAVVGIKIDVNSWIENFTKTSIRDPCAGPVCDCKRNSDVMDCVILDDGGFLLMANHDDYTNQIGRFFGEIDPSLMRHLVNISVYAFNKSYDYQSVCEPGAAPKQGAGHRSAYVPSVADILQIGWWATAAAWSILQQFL
Sequence (P54289 947-1103 partner limits assumed): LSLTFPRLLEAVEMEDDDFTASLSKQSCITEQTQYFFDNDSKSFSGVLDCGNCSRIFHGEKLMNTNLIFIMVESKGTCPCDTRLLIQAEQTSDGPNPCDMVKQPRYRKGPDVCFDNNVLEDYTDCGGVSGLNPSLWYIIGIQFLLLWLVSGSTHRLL
Assay: Functional Assay: Antagonism of N-Type Calcium Channel (FDSS calcium mobilization, KCl depolarization)
Type: cell-based
Details: HEK cell line, 50 mM KCl depolarization, six-point concentration-response; read-out: FDSS IC50
METRIC: IC50 (nM)

Use the examples below as a reference point.
CCC(CC)CO[C@@H]1Cc2nn(-c3ccccc3OC)c(-c3ccc(Cl)cc3)c2C1 ... 61
CCOc1ccc(C2Cc3nn(-c4ccccc4OC)c(-c4ccc(Cl)cc4)c3C2)cn1 (centres unmarked) ... 150
COc1ccccc1-n1nc2c(c1-c1ccc(Cl)cc1)C[C@H](OC(C)C)C2 ... 5.7
COc1ccccc1-n1nc2c(c1-c1ccc(Cl)cc1)C[C@H](OC(=O)C1CCOCC1)C2 ... 82
CN(C)C(=O)NCCC1Cc2nn(-c3ccccc3C(F)(F)F)c(-c3ccc(Cl)cc3)c2C1 (centres unmarked) ... 220
CCOc1ccccc1-n1nc2c(c1-c1ccc(Cl)cc1)CC(n1ccnn1)C2 (centres unmarked) ... 19

I: COc1ccccc1-n1nc2c(c1-c1ccc(Cl)cc1)C[C@H](O[Si](C)(C)C)C2
II: COc1ccccc1-n1nc2c(c1-c1ccc(Cl)cc1)CC(=O)C2
Which entry has a larger number for IC50, I or II ? Let me know the label of the one you choose.
II
